Provide the reported pIC50 of each item.
- testedOn: NRAS Q61K (Homo sapiens, UniProt P01111+P62937, Q61K)
- Sequence (P01111 whole entry Q61K): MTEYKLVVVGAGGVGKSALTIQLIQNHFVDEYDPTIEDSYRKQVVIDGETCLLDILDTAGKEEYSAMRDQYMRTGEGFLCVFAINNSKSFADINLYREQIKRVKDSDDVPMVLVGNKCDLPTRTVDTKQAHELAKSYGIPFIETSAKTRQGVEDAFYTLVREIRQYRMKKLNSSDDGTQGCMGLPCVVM
- Sequence (P62937 whole entry): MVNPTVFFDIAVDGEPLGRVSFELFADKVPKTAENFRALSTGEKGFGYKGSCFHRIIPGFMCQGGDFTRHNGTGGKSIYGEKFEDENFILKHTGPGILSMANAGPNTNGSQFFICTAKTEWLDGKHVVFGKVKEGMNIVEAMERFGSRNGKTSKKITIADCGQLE
- assayMethodText: Disruption of BRAF RBD interaction with Ras (FRET / MOA assay, with Cyclophilin A)
- Type: biochemical
- experimentalParameters: NRAS Q61K; read-out: NRAS Q61K FRET data IC50
pIC50: −log10 of the molar value.

Q: Param item = C=CC(=O)N1CCC2(C1)CN(C(=O)N(C)[C@H](C(=O)N[C@H]1Cc3nc(cs3)-c3ccc4c(c3)c(c(-c3cccnc3[C@H](C)OC)n4CC(F)(F)F)CC(C)(C)COC(=O)C3CCCN(N3)C1=O)C(C)C)C2 (stereo partly shown) [Example A603] ; retrieve measured pIC50.
Result: 7.00 to 8.00

Q: Param item = CO[C@@H](COC1CN(C(=O)C#CC(C)(C)N(C)C)C1)C(=O)N[C@H]1Cc2cccc(c2)-c2ccc3c(c2)c(c(-c2cccnc2[C@H](C)OC)n3CC(F)(F)F)CC(C)(C)COC(=O)[C@@H]2CCCN(N2)C1=O [Example A556] ; retrieve measured pIC50.
Result: < 5.00

Q: Param item = CCn1c(-c2cccnc2[C@H](C)OC)c2c3cc(ccc31)-c1cc(O)cc(c1)C[C@H](NC(=O)[C@H](C(C)C)N(C)C(=O)C1CN(C)C1)C(=O)N1CCC[C@H](N1)C(=O)OCC(C)(C)C2 (atropisomer, axis not shown) [Example A124] ; retrieve measured pIC50.
Result: 6.00 to 7.00

Q: Param item = C=CC(=O)N1CCO[C@H]2CN(C(=O)N(C)[C@H](C(=O)N[C@H]3Cc4cccc(c4)-c4ccc5c(c4)c(c(-c4cccnc4[C@H](C)OC)n5CC)CC(C)(C)COC(=O)C4CCCN(N4)C3=O)C(C)C)C[C@H]21 (stereo partly shown) [Example A610] ; retrieve measured pIC50.
Result: 6.00 to 7.00

Q: Param item = C=CC(=O)Nc1cnc(OC[C@H](C(=O)N[C@H]2Cc3cccc(c3)-c3ccc4c(c3)c(c(-c3cccnc3[C@H](C)OC)n4CC)CC(C)(C)COC(=O)C3CCCN(N3)C2=O)C(C)C)n1C (stereo partly shown) [Example A600] ; retrieve measured pIC50.
Result: 5.00 to 6.00

Q: Param item = CCn1c(-c2cccnc2[C@H](C)OC)c2c3cc(ccc31)-c1csc(n1)C[C@H](NC(=O)[C@H](C(C)C)N(C)C(=O)N1CC[C@@H]1CN(C)C)C(=O)N1CCC[C@H](N1)C(=O)OCC(C)(C)C2 [Example A502] ; retrieve measured pIC50.
Result: 6.00 to 7.00

Q: Param item = C=CC(=O)N1CCO[C@H]2CCN(C(=O)N(C)[C@H](C(=O)N[C@H]3Cc4nc(cs4)-c4ccc5c(c4)c(c(-c4cccnc4[C@H](C)OC)n5CC)CC(C)(C)COC(=O)C4CCCN(N4)C3=O)C(C)C)C[C@@H]21 (stereo partly shown) [Example A609] ; retrieve measured pIC50.
Result: 7.00 to 8.00

Q: Param item = C=CC(=O)N1CC2(C1)OCCN2C(=O)N(C)[C@H](C(=O)N[C@H]1Cc2nc(cs2)-c2ccc3c(c2)c(c(-c2cccnc2[C@H](C)OC)n3CC)CC(C)(C)COC(=O)C2CCCN(N2)C1=O)C(C)C (stereo partly shown) [Example A620] ; retrieve measured pIC50.
Result: 7.00 to 8.00

Q: Param item = CCn1c(-c2cccnc2[C@H](C)OC)c2c3cc(ccc31)-c1csc(n1)C[C@H](NC(=O)[C@H](C(C)C)N(C)C(=O)N1CCC[C@H](CN(C)C)C1)C(=O)N1CCC[C@H](N1)C(=O)OCC(C)(C)C2 (atropisomer, axis not shown) [Example A573] ; retrieve measured pIC50.
Result: 7.00 to 8.00

Q: Param item = CCn1c(-c2cc(N3CCN(C)CC3)cnc2[C@H](C)OC)c2c3cc(ccc31)-c1csc(n1)C[C@H](NC(=O)[C@H](C1CCCC1)N(C)C(=O)N(C)C)C(=O)N1CCC[C@H](N1)C(=O)OCC(C)(C)C2 (atropisomer, axis not shown) [Example A526] ; retrieve measured pIC50.
Result: 7.00 to 8.00

====

- testedOn: KRAS G12V (Homo sapiens, UniProt P01116+P62937, G12V)
- Sequence (P01116 1-169 isoform P01116-2 G12V limits assumed, one chain of several): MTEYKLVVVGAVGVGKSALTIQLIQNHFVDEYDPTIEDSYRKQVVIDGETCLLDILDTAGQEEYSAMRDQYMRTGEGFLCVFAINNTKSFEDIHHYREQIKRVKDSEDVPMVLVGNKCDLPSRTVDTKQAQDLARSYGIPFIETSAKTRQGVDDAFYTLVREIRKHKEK
- assayMethodText: Disruption of BRAF RBD interaction with Ras (FRET / MOA assay, with Cyclophilin A)
- Format: biochemical
- experimentalParameters: KRAS G12V; read-out: KRAS G12V FRET data IC50
Provide the reported IC50 of each item.

Q: Param item = CCn1c(-c2cccnc2[C@H](C)OC)c2c3cc(ccc31)-c1csc(n1)C[C@H](NC(=O)[C@H](C(C)C)N(C)C(=O)N1CC3(C1)CS(=O)(=O)CCN3C)C(=O)N1CCC[C@H](N1)C(=O)OCC(C)(C)C2 ; retrieve measured IC50.
Result: 1000 to 10000 nM

Q: Param item = CCn1c(-c2cccnc2[C@H](C)OC)c2c3cc(ccc31)-c1csc(n1)C[C@H](NC(=O)[C@H](C(C)C)N(C)C(=O)N1CCCC13CCOCC3)C(=O)N1CCC[C@H](N1)C(=O)OCC(C)(C)C2 (atropisomer, axis not shown) ; retrieve measured IC50.
Result: 100 to 1000 nM

Q: Param item = CCn1c(-c2cccnc2[C@H](C)OC)c2c3cc(ccc31)-c1csc(n1)C[C@H](NC(=O)[C@H](C(C)C)N(C)C(=O)N1CC[C@H]3CN(C)C[C@H]31)C(=O)N1CCC[C@H](N1)C(=O)OCC(C)(C)C2 (atropisomer, axis not shown) ; retrieve measured IC50.
Result: 100 to 1000 nM

Q: Param item = CCn1c(-c2cccnc2[C@H](C)OC)c2c3cc(ccc31)-c1csc(n1)C[C@H](NC(=O)[C@H](C(C)C)N(C)C(=O)N1CC3CCN(C)CC31)C(=O)N1CCC[C@H](N1)C(=O)OCC(C)(C)C2 (stereo partly shown) ; retrieve measured IC50.
Result: 1000 to 10000 nM

====

- testedOn: KRAS G12D (Homo sapiens, UniProt P01116+P62937, G12D)
- Sequence (P01116 1-169 isoform P01116-2 G12D limits assumed, one chain of several): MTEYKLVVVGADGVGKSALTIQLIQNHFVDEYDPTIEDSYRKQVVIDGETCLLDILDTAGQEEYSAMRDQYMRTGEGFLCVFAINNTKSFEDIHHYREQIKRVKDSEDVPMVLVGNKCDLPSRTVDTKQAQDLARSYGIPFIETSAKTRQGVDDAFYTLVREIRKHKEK
- assayMethodText: Disruption of BRAF RBD interaction with Ras (FRET / MOA assay, with Cyclophilin A)
- Type: biochemical
- experimentalParameters: read-out: KRAS G12D FRET data, IC50
Provide the reported IC50 of each item.

Q: Param item = C=CC(=O)N1CC[C@H](C(=O)N(C)[C@H](C(=O)N[C@H]2Cc3cc(O)cc(c3)-c3ccc4c(c3)c(c(-c3cnccc3C)n4CC)CC(C)(C)COC(=O)[C@@H]3CCCN(N3)C2=O)C(C)C)C1 ; retrieve measured IC50.
Result: 1000 to 10000 nM

Q: Param item = CCn1c(-c2cccnc2[C@H](C)OC)c2c3cc(ccc31)-c1csc(n1)C[C@H](NC(=O)[C@H](C(C)C)N(C)C(=O)N1CC([C@H](C)OC)C1)C(=O)N1CCC[C@H](N1)C(=O)OCC(C)(C)C2 (atropisomer, axis not shown) ; retrieve measured IC50.
Result: 100 to 1000 nM

Q: Param item = C=CC(=O)N1CC[C@@H](N(C)C(=O)N(C)[C@H](C(=O)N[C@H]2Cc3nc(cs3)-c3ccc4c(c3)c(c(-c3cccnc3[C@H](C)OC)n4CC(F)(F)F)CC(C)(C)COC(=O)[C@@H]3CCCN(N3)C2=O)C(C)C)C1 (atropisomer, axis not shown) ; retrieve measured IC50.
Result: 1000 to 10000 nM

Q: Param item = CO[C@@H](C)c1ncccc1-c1c2c3cc(ccc3n1C)-c1csc(n1)C[C@H](NC(=O)[C@H](C(C)C)N(C)C(C)=O)C(=O)N1CCC[C@H](N1)C(=O)OCC(C)(C)C2 (racemic) ; retrieve measured IC50.
Result: > 10000 nM

Q: Param item = CCn1c(-c2cccnc2[C@H](C)OC)c2c3cc(ccc31)-c1cccc(c1)C[C@H](NC(=O)[C@H](C(C)C)N(C)C(=O)[C@H]1CCN(C(=O)CN(C)C)C1)C(=O)N1CCC[C@H](N1)C(=O)OCC(C)(C)C2 ; retrieve measured IC50.
Result: 1000 to 10000 nM

Q: Param item = CCn1c(-c2cccnc2[C@H](C)OC)c2c3cc(ccc31)-c1csc(n1)C[C@H](NC(=O)[C@H](C(C)C)N(C)C(=O)N1CCCC1)C(=O)N1CCC[C@H](N1)C(=O)OCC(C)(C)C2 (atropisomer, axis not shown) ; retrieve measured IC50.
Result: 100 to 1000 nM

Q: Param item = C=CC(=O)N1CC[C@H](C(=O)N(C)[C@H](C(=O)N[C@H]2Cc3cc(O)cc(c3)-c3ccc4c(c3)c(c(-c3ccc(C5CCN(C)CC5)cc3)n4CC)CC(C)(C)COC(=O)[C@@H]3CCCN(N3)C2=O)C(C)C)C1 ; retrieve measured IC50.
Result: 1000 to 10000 nM

Q: Param item = CCn1c(-c2cccnc2[C@H](C)OC)c2c3cc(ccc31)-c1csc(n1)C[C@H](NC(=O)[C@H](C(C)C)N(C)C(=O)N1CC(OC(F)F)C1)C(=O)N1CCC[C@H](N1)C(=O)OCC(C)(C)C2 (atropisomer, axis not shown) ; retrieve measured IC50.
Result: 100 to 1000 nM

Q: Param item = CCn1c(-c2cccnc2[C@H](C)OC)c2c3cc(ccc31)-c1cc(O)cc(c1)C[C@H](NS(=O)(=O)CC1OCCC13CNC3)C(=O)N1CCC[C@H](N1)C(=O)OCC(C)(C)C2 (mixture of isomers) ; retrieve measured IC50.
Result: > 10000 nM

Q: Param item = CCn1c(-c2cccnc2[C@H](C)OC)c2c3cc(ccc31)-c1csc(n1)C[C@H](NC(=O)[C@H](C(C)C)N(C)C(=O)N1CCC[C@@H](N(C)C)C1)C(=O)N1CCC[C@H](N1)C(=O)OCC(C)(C)C2 (atropisomer, axis not shown) ; retrieve measured IC50.
Result: 100 to 1000 nM

Q: Param item = CCn1c(-c2cnccc2COC)c2c3cc(ccc31)-c1cc(O)cc(c1)C[C@H](NC(=O)[C@H](C(C)C)N(C)CC(F)(F)F)C(=O)N1CCC[C@H](N1)C(=O)OCC(C)(C)C2 ; retrieve measured IC50.
Result: > 10000 nM
